Test system: A204
Assay: relative viability vs DMSO control (72 h) (fraction); higher = more viable cells
Conditions: 0.00457 µM
Field: label. Allowed values: True (relative viability < 1) or False (relative viability >= 1).

# compound, classification
data = [
    ("CC#CC(=O)N1CCC[C@H]1c1nc(-c2ccc(C(=O)Nc3ccccn3)cc2)c2c(N)nccn12", "False"),
    ("O=C1NC(=O)[C@@H](c2cn3c4c(cccc24)CCC3)[C@@H]1c1c[nH]c2ccccc12 [Tivantinib]", "False"),
    ("CCN(CC)CCNC(=O)c1c(C)[nH]c(/C=C2\\C(=O)Nc3ccc(F)cc32)c1C", "True"),
    ("COC(=O)[C@@]1(O)C[C@H]2O[C@]1(C)n1c3ccccc3c3c4c(c5c6ccccc6n2c5c31)C(=O)NC4 [K-252a]", "False"),
    ("CCc1cnn2c(NCc3ccc[n+]([O-])c3)cc(N3CCCC[C@H]3CCO)nc12", "True"),
    ("C[C@H](Nc1ncnc2nc[nH]c12)c1cc2cccc(Cl)c2c(=O)n1-c1ccccc1", "False"),
    ("CC1(COc2ccc3c(c2)ncn3-c2ccc3cccc(N4CCC(N)CC4)c3n2)COC1", "False"),
    ("CC(C)(O)CNc1nc(Nc2ccnc(C(F)(F)F)c2)nc(-c2cccc(C(F)(F)F)n2)n1", "False"),
    ("CCC(=O)N1CC[C@H](Nc2ncnc3c2CN(c2cnc(OC)c(C(F)(F)F)c2)CC3)C1", "False"),
    ("N#CC1(c2ccc(NC(=O)c3cccnc3NCc3ccncc3)cc2)CCCC1", "False"),
]

====

Test system: SW1353
Assay: relative viability vs DMSO control (72 h) (fraction); higher = more viable cells
Settings: 0.00457 µM
result_type: relative viability

# molecule, result_type, reported_value
measured = [
    ("O=C(Nc1ccc(OC(F)(F)Cl)cc1)c1cnc(N2CC[C@@H](O)C2)c(-c2cc[nH]n2)c1 [Asciminib]", "relative viability", 0.96),
    ("CC#CC(=O)N1CCC[C@H]1c1nc(-c2ccc(C(=O)Nc3ccccn3)cc2)c2c(N)nccn12 [Acalabrutinib]", "relative viability", 0.946),
    ("COCCNc1cc(NC(=O)N2CCCc3cc(CN4CCN(C)CC4=O)c(C=O)nc32)ncc1C#N [Roblitinib]", "relative viability", 0.95),
    ("CCN1C(=O)N(c2c(F)c(OC)cc(OC)c2F)Cc2cnc3[nH]c(CN4CCOCC4)cc3c21 [Pemigatinib]", "relative viability", 0.964),
    ("CC(C)(C)c1nc(-c2cccc(NS(=O)(=O)c3c(F)cccc3F)c2F)c(-c2ccnc(N)n2)s1 [Dabrafenib]", "relative viability", 0.959),
    ("Cc1cccc(-c2nn3c(c2-c2ccnc4ccc(C(N)=O)cc24)CCC3)n1 [Galunisertib]", "relative viability", 0.954),
    ("CCC(=O)N1CC[C@H](Nc2ncnc3c2CN(c2cnc(OC)c(C(F)(F)F)c2)CC3)C1 [Leniolisib]", "relative viability", 0.999),
    ("COC(=O)[C@@]1(O)C[C@H]2O[C@]1(C)n1c3ccccc3c3c4c(c5c6ccccc6n2c5c31)C(=O)NC4 [K-252a]", "relative viability", 1),
    ("CC(C)NC[C@@H](C(=O)N1CCN(c2ncnc3c2[C@H](C)C[C@H]3O)CC1)c1ccc(Cl)cc1 [Ipatasertib]", "relative viability", 1.02),
]

Source: the supplement of paper PMC10883282
